tested on: Escherichia coli TOP10; assay: shrunken log2 fold change of peptide-encoding DNA abundance (4.5 h post-induction vs induction); higher = less antimicrobial activity (less host growth inhibition); details: time post-induction: 4.5 h; library: site-saturation at positions 5, 18, 19, 20
So basically: shrunken log2 fold change at -0.05 or higher? That is MET. Lower than -0.05? That is NOT MET.

These solved cases illustrate the format of a correct answer.
Data request: Can `RRIRHRPPRLPRPRPRPEMWPRP` be said to have shrunken log2 fold change at or above -0.05?
Data returned: MET

Data request: Dear colleague, could you confirm whether `RRIRQRPPRLPRPRPRPQPMPRP` has shrunken log2 fold change at or above -0.05?
Data returned: MET

Data request: Hello, I need to know if `RRIRMRPPRLPRPRPRPSMIPRP` has measured shrunken log2 fold change not below -0.05. Thanks!
Data returned: MET

Data request: Has `RRIRDRPPRLPRPRPRPQPRPRP` a recorded shrunken log2 fold change greater than or equal to -0.05?
Data returned: MET

Data request: Tell me whether shrunken log2 fold change is at least -0.05 here: `RRIRVRPPRLPRPRPRPDKFPRP`
Data returned: MET

Data request: Answer whether shrunken log2 fold change of `RRIRERPPRLPRPRPRPQWWPRP` is greater than or equal to -0.05.
Data returned: MET

Others:
Data request: # check: shrunken log2 fold change of `RRIRFRPPRLPRPRPRPPMQPRP` is greater than or equal to -0.05
Data returned: MET

Data request: # check: shrunken log2 fold change of `RRIRDRPPRLPRPRPRPFIAPRP` is greater than or equal to -0.05
Data returned: NOT MET

====

system: Escherichia coli TOP10; experiment: shrunken log2 fold change of peptide-encoding DNA abundance (4.5 h post-induction vs induction); higher = less antimicrobial activity (less host growth inhibition); details: time post-induction: 4.5 h; library: site-saturation at positions 5, 18, 19, 20
Entries get a class label from measured shrunken log2 fold change. See ranges: Low = under -0.2, Medium = from -0.2 up to 0.07, High = 0.07 and over

Data request: Class label required: `RRIRCRPPRLPRPRPRPMVEPRP`
Data returned: High

Data request: Category lookup for the sequence `RRIRGRPPRLPRPRPRPEFMPRP`
Data returned: High

Data request: Which of the defined bands does the recorded shrunken log2 fold change of `RRIRERPPRLPRPRPRPFKPPRP` sit within?
Data returned: Low

Data request: Which class does `RRIRNRPPRLPRPRPRPFNSPRP` fall in?
Data returned: Medium

Data request: Which class holds `RRIRWRPPRLPRPRPRPYRIPRP` ?
Data returned: Low

Next:
Data request: Which bin should I file `RRIRKRPPRLPRPRPRPTFTPRP` under?
Data returned: High

Data request: // return the class label for `RRIRCRPPRLPRPRPRPWYWPRP`
Data returned: Low

Data request: Assign a category based on measured shrunken log2 fold change for `RRIRDRPPRLPRPRPRPAAEPRP` and give only the class name.
Data returned: High

Data request: Kindly identify the class of `RRIRQRPPRLPRPRPRPDCEPRP` .
Data returned: Medium

Data request: Band for `RRIRARPPRLPRPRPRPYWKPRP` ?
Data returned: Medium

====

Listed here: items and their measured shrunken log2 fold change.
tested on: Escherichia coli TOP10; assay: shrunken log2 fold change of peptide-encoding DNA abundance (4.5 h post-induction vs induction); higher = less antimicrobial activity (less host growth inhibition); conditions: time post-induction: 4.5 h; library: site-saturation at positions 5, 18, 19, 20;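 note: peptides expressed intracellularly from a pBAD plasmid library in pooled LB shake-flask culture, induced with 0.3% L-arabinose, DNA abundance read by NGS, three biological replicates, DESeq2 with apeglm shrinkage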
Write the value as a bare number.

The value of shrunken log2 fold change measured for the sequence `RRIRYRPPRLPRPRPRPISYPRP` turned out to be -0.325

Notebook: `RRIRFRPPRLPRPRPRPFHVPRP` , shrunken log2 fold change read as -0.546

The sequence listed as `RRIRTRPPRLPRPRPRPGFGPRP` has a reported shrunken log2 fold change of 0.263

What the record says about `RRIRLRPPRLPRPRPRPLTRPRP` : shrunken log2 fold change is 1.93

Record `RRIRFRPPRLPRPRPRPYFTPRP` . Reported shrunken log2 fold change: -1.09

Note to self: shrunken log2 fold change recorded for `RRIRTRPPRLPRPRPRPNYTPRP` was -0.753

// shrunken log2 fold change lookup, sequence = `RRIRYRPPRLPRPRPRPFLMPRP` , result: -0.922

// moving on: another record for shrunken log2 fold change
Record summary for `RRIRTRPPRLPRPRPRPIDYPRP` : reported shrunken log2 fold change = -0.231
